B1: TPR 5TU (parent)
chain: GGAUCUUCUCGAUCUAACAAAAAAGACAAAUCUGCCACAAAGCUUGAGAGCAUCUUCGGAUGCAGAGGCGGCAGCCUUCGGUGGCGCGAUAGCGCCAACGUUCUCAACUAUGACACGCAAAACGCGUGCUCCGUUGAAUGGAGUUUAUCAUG

Variants of: B1
ASSAY DETAILS: polymerase ribozyme fitness, log enrichment relative to wild type (log ratio); higher = more active; in vitro selection for triplet polymerase activity
Variants at the floor of the assay were thinned out.
PARAMETER MEASURED: polymerase ribozyme fitness (log ratio)
Answer using only a numeral; do not append any unit.

Reference set (5 entries):
C85A G140U; -3
A47U G92U; -0.338
G58U C87U C125G; -0.741
A60G C96G; -0.394
G48A A107G; -4.08

Prompt: Entry under review: C69A C75U A106G A120G . Reported polymerase ribozyme fitness (log ratio)?
Completion: -2.33

Prompt: polymerase ribozyme fitness (log ratio) for U4G A20C C85U ?
Completion: -0.147

Prompt: Report polymerase ribozyme fitness (log ratio) for C18G C85A please.
Completion: -1.49
